Test system: Pseudomonas aeruginosa
Test Method Notes: MIC, compound in combination with a second agent (broth microdilution)
Assay type: cell-based
Assay Conditions: 1:1 (wt:wt) combination with Rifampicin; MIC = total drug concentration; strain CCUG 59626
Where a name gives a salt, the structure may show the parent alone. Numbered stars: 1 amine (or outer) side, 2 acyl side, 3 side chain; on linkers, the order of the positions; unused ones are H or OH. Bridge positions count the residues as written; N and C are the ends. Square brackets hold non-standard residues; d marks the D form. Peptide text beside a SMILES is read from it. * marks the point of attachment. ξ: configuration not given here. Thr(3ξ) = CC(O)[C@H](N)C(=O)O; NH(2-ClPh) = Clc1ccccc1N*; Dab = NCC[C@H](N)C(=O)O; CO = O=C([*:1])[*:2]; Ava = NCCCCC(=O)O
Result Type: MIC P. aeruginosa CCUG 59626 (micrograms/mL)

INSERT INTO measurements (compound, operator, value) VALUES
  ('CC(C)C[C@@H]1NC(=O)[C@@H](Cc2ccccc2)NC(=O)[C@H](CCN)NC(=O)[C@@H](NC(=O)[C@H](CCN)NC(=O)[C@@H](NC(=O)CC(C)O)C(C)O)CCNC(=O)[C@H](C(C)O)NC(=O)[C@H](CCN)NC(=O)[C@H](CCN)NC1=O (mixture of isomers)', '=', 0.5),
  ('CC(C)C[C@@H]1NC(=O)[C@@H](Cc2ccccc2)NC(=O)[C@H](CCN)NC(=O)[C@@H](NC(=O)[C@H](CCN)NC(=O)[C@@H](NC(=O)[C@H](CCN)NC(=O)Nc2ccccc2Cl)C(C)O)CCNC(=O)[C@H](C(C)O)NC(=O)[C@H](CCN)NC(=O)[C@H](CCN)NC1=O (stereo partly drawn) [Example C2, CB-182, 804 sulphate salt, reference compound] ({NH(2-ClPh)-CO}-[Dab][Thr(3ξ)][Dab][Dab][Dab][dF]L[Dab][Dab][Thr(3ξ)]; lactam 4-C)', '=', 0.125),
  ('CC(C)C[C@@H]1NC(=O)[C@@H](Cc2ccccc2)NC(=O)[C@H](CCN)NC(=O)[C@@H](NC(=O)[C@H](CCN)NC(=O)[C@@H](NC(=O)CCCCN)C(C)O)CCNC(=O)[C@H](C(C)O)NC(=O)[C@H](CCN)NC(=O)[C@H](CCN)NC1=O (stereo partly drawn) [Example 6, 5-Aminopentanoyl polymyxin B nonapeptide] (H-[Ava][Thr(3ξ)][Dab][Dab][Dab][dF]L[Dab][Dab][Thr(3ξ)]; lactam 4-C)', '≤', 0.06);

---

Tested on: Escherichia coli
Test Method Notes: MIC, sole activity (no second agent)
Type: cell-based
Assay Conditions: in the absence of Rifampicin; strain ATCC25922
Counter-ions that a name gives are not always drawn. Bridge positions count the residues as written; N and C are the ends. Square brackets hold non-standard residues; d marks the D form. Peptide text beside a SMILES is read from it. * marks the point of attachment. ξ: configuration not given here. ξβ3hGly(cHex) = NC(CC(=O)*)C1CCCCC1; Thr(3ξ) = CC(O)[C@H](N)C(=O)O; X13 = O=C(CC[C@@H]1CCCN1)*; Dab = NCC[C@H](N)C(=O)O; Dap = NC[C@H](N)C(=O)O; Ava = NCCCCC(=O)O
Result Type: MIC E. coli ATCC25922 (micrograms/mL)

INSERT INTO results (compound, test_system, value) VALUES
  ('CC(C)C[C@@H]1NC(=O)[C@@H](Cc2ccccc2)NC(=O)[C@H](CCN)NC(=O)[C@@H](NC(=O)[C@H](CN)NC(=O)[C@@H](NC(=O)CC(N)C2CCCCC2)C(C)O)CCNC(=O)[C@H](C(C)O)NC(=O)[C@H](CCN)NC(=O)[C@H](CCN)NC1=O (stereo partly drawn) [Example 47, TFA salt] ({ξβ3hGly(cHex)}-[Thr(3ξ)][Dap][Dab][Dab][dF]L[Dab][Dab][Thr(3ξ)]; lactam 3-C)', 'Escherichia coli', 4),
  ('CC(C)C[C@@H]1NC(=O)[C@@H](Cc2ccccc2)NC(=O)[C@H](CCN)NC(=O)[C@@H](NC(=O)[C@H](CCN)NC(=O)[C@@H](NC(=O)CCCCN)C(C)O)CCNC(=O)[C@H](C(C)O)NC(=O)[C@H](CCN)NC(=O)[C@H](CCN)NC1=O (stereo partly drawn) [Example 6, 5-Aminopentanoyl polymyxin B nonapeptide] (H-[Ava][Thr(3ξ)][Dab][Dab][Dab][dF]L[Dab][Dab][Thr(3ξ)]; lactam 4-C)', 'Escherichia coli', 2),
  ('CC(C)C[C@@H]1NC(=O)[C@@H](Cc2ccccc2)NC(=O)[C@H](CCN)NC(=O)[C@@H](NC(=O)[C@H](CCN)NC(=O)[C@@H](NC(=O)CC[C@@H]2CCCN2)C(C)O)CCNC(=O)[C@H](C(C)O)NC(=O)[C@H](CCN)NC(=O)[C@H](CCN)NC1=O (stereo partly drawn) [Example 23] (X13-[Thr(3ξ)][Dab][Dab][Dab][dF]L[Dab][Dab][Thr(3ξ)]; lactam 3-C)', 'Escherichia coli', 16);

---

Measured MIC E. coli NCTC9001, listed per entry for reference.
System: Escherichia coli
Test Method Notes: MIC, sole activity (no second agent)
Type: cell-based
Assay Conditions: in the absence of Rifampicin; strain NCTC9001
Where a name gives a salt, the structure may show the parent alone. Bridge positions count the residues as written; N and C are the ends. Square brackets hold non-standard residues; d marks the D form. Peptide text beside a SMILES is read from it. * marks the point of attachment. ξ: configuration not given here. ξβ3hGly(cHex) = NC(CC(=O)*)C1CCCCC1; Thr(3ξ) = CC(O)[C@H](N)C(=O)O; X13 = O=C(CC[C@@H]1CCCN1)*; Dab = NCC[C@H](N)C(=O)O; Inp = O=C(O)C1CCNCC1
Result Type: MIC E. coli NCTC9001

INSERT INTO measurements (molecule, test_system, result_type, value) VALUES
  ('CC(C)C[C@@H]1NC(=O)[C@@H](Cc2ccccc2)NC(=O)[C@H](CCN)NC(=O)[C@@H](NC(=O)[C@H](CCN)NC(=O)[C@@H](NC(=O)CC[C@@H]2CCCN2)C(C)O)CCNC(=O)[C@H](C(C)O)NC(=O)[C@H](CCN)NC(=O)[C@H](CCN)NC1=O (stereo partly drawn) [Example 23] (X13-[Thr(3ξ)][Dab][Dab][Dab][dF]L[Dab][Dab][Thr(3ξ)]; lactam 3-C)', 'Escherichia coli', 'MIC E. coli NCTC9001', '>32 micrograms/mL'),
  ('CC(C)C[C@@H]1NC(=O)[C@@H](Cc2ccccc2)NC(=O)[C@H](CCN)NC(=O)[C@@H](NC(=O)[C@@H](CO)NC(=O)[C@@H](NC(=O)CC(N)C2CCCCC2)[C@@H](C)O)CCNC(=O)[C@H](C(C)O)NC(=O)[C@H](CCN)NC(=O)[C@H](CCN)NC1=O (stereo partly drawn) [Example 48, TFA salt] ({ξβ3hGly(cHex)}-T[dS][Dab][Dab][dF]L[Dab][Dab][Thr(3ξ)]; lactam 3-C)', 'Escherichia coli', 'MIC E. coli NCTC9001', '>32 micrograms/mL'),
  ('CC(C)C[C@@H]1NC(=O)[C@@H](Cc2ccccc2)NC(=O)[C@H](CCN)NC(=O)[C@@H](NC(=O)[C@H](CCCCN)NC(=O)[C@@H](NC(=O)C2CCNCC2)C(C)O)CCNC(=O)[C@H](C(C)O)NC(=O)[C@H](CCN)NC(=O)[C@H](CCN)NC1=O (stereo partly drawn) [Example 51, TFA salt] (H-[Inp][Thr(3ξ)]K[Dab][Dab][dF]L[Dab][Dab][Thr(3ξ)]; lactam 4-C)', 'Escherichia coli', 'MIC E. coli NCTC9001', '>32 micrograms/mL');

---

Measured MIC A. baumannii ATCC13424, listed per entry for reference.
Tested on: Acinetobacter baumannii
Test Method Notes: MIC, sole activity (no second agent)
Format: cell-based
Assay Conditions: in the absence of Rifampicin; strain ATCC13424
Counter-ions that a name gives are not always drawn. Bridge positions count the residues as written; N and C are the ends. Square brackets hold non-standard residues; d marks the D form. Peptide text beside a SMILES is read from it. * marks the point of attachment. ξ: configuration not given here. ξβ3hGly(cHex) = NC(CC(=O)*)C1CCCCC1; Thr(3ξ) = CC(O)[C@H](N)C(=O)O; Dab = NCC[C@H](N)C(=O)O; Dap = NC[C@H](N)C(=O)O; Inp = O=C(O)C1CCNCC1
Result Type: MIC A. baumannii ATCC13424 (micrograms/mL)

INSERT INTO results (molecule, value) VALUES
  ('CC(C)C[C@@H]1NC(=O)[C@@H](Cc2ccccc2)NC(=O)[C@H](CCN)NC(=O)[C@@H](NC(=O)[C@H](CCCCN)NC(=O)[C@@H](NC(=O)C2CCNCC2)C(C)O)CCNC(=O)[C@H](C(C)O)NC(=O)[C@H](CCN)NC(=O)[C@H](CCN)NC1=O (stereo partly drawn) [Example 51, TFA salt] (H-[Inp][Thr(3ξ)]K[Dab][Dab][dF]L[Dab][Dab][Thr(3ξ)]; lactam 4-C)', 4),
  ('CC(C)C[C@@H]1NC(=O)[C@@H](Cc2ccccc2)NC(=O)[C@H](CCN)NC(=O)[C@@H](NC(=O)[C@H](CN)NC(=O)[C@@H](NC(=O)CC(N)C2CCCCC2)C(C)O)CCNC(=O)[C@H](C(C)O)NC(=O)[C@H](CCN)NC(=O)[C@H](CCN)NC1=O (stereo partly drawn) [Example 47, TFA salt] ({ξβ3hGly(cHex)}-[Thr(3ξ)][Dap][Dab][Dab][dF]L[Dab][Dab][Thr(3ξ)]; lactam 3-C)', 1),
  ('CC(C)C[C@@H]1NC(=O)[C@@H](Cc2ccccc2)NC(=O)[C@H](CCN)NC(=O)[C@@H](NC(=O)[C@H](CCN)NC(=O)[C@@H](NC(=O)C(O)C2CCCCC2)C(C)O)CCNC(=O)[C@H](C(C)O)NC(=O)[C@H](CCN)NC(=O)[C@H](CCN)NC1=O (mixture of isomers)', 4);
